Tested on: NCI-H522
assayNotes: NCI tumour cell line growth inhibition, 48 h
Activity calls are given as the source filed them. No stated cut-off is given here; in the data, active = GI50 up to about 1.1 µM and inactive = higher.
assayMetric: GI50

>  <compound>
O=C(/C=C/c1ccc(OCc2cccc(Cl)c2)cc1)NO

>  <GI50>
7.41 µM (inactive)

$$$$
>  <compound>
COc1ccc(-c2c(/C=N/OCC(=O)O)c3sc4ccccc4n3c2/C=N/OCC(=O)O)cc1

>  <GI50>
> 50 µM (inactive)

$$$$
>  <compound>
CCCN/C(N)=N/C#N

>  <GI50>
> 100 µM (inactive)

$$$$

**Q:** Quickly give me recorded GI50 for CCOC(=O)[C@H]1Nc2ccccc2C2c3ccccc3CC21 (stereo not given in full)
**A:** 16.4 µM (inactive)

**Q:** Quickly give me recorded GI50 for COC(=O)[C@@H]1O[C@]12[C@@H](CO[Si](C)(C)C(C)(C)C)O[C@@H](n1cc(C)c(=O)[nH]c1=O)[C@@H]2O[Si](C)(C)C(C)(C)C
**A:** 11.9 µM (inactive)

###

System: SF-295
assayNotes: NCI tumour cell line growth inhibition, 48 h
Active and inactive are the calls of the source. Cut-off read from the data, not from the text of the source: active = GI50 up to about 1.1 µM and inactive = higher.
GI50 overview

Consider the following illustrative entries.
>  <compound>
O=NN1CCN=C1c1ccc([N+](=O)[O-])cc1

>  <GI50>
> 100 µM (inactive)

$$$$
>  <compound>
Cc1cc(=O)n2c3c(c4c(cc13)c(CO)cc(=O)n4C)OC2

>  <GI50>
30.3 µM (inactive)

$$$$
>  <compound>
COc1ccc(C2C(C#N)=C(S)N(C3OC(CO)C(O)C(O)C3O)C(c3ccccc3)=C2C(C)=O)cc1 (configuration not stated)

>  <GI50>
> 100 µM (inactive)

$$$$
>  <compound>
O=C(c1ccc(NCN2C(=O)CCC2=O)cc1)c1ccc(NCN2C(=O)CCC2=O)cc1

>  <GI50>
> 100 µM (inactive)

$$$$
>  <compound>
COc1ccc(/C=C2\CCNC2=O)cc1

>  <GI50>
> 100 µM (inactive)

$$$$

**Q:** Quickly give me recorded GI50 for CC(=O)c1c(O)ccc2c1CC(CC=O)O2 (configuration not stated)
**A:** > 100 µM (inactive)

**Q:** Quickly give me recorded GI50 for O=C(Nc1ccc2cc3ccccc3cc2c1)c1cc2c(cc1Cl)Sc1nccn1S2(=O)=O
**A:** 13.4 µM (inactive)

**Q:** Quickly give me recorded GI50 for Cc1nc(C(N)=S)sc1C(=O)CC(=O)C(=O)Nc1ccccc1[N+](=O)[O-]
**A:** > 100 µM (inactive)

**Q:** Quickly give me recorded GI50 for O=c1c2cc(Br)cc(Br)c2[nH]c(=S)n1-c1ccc(/N=N/c2ccc(O)c3cccnc23)cc1
**A:** 64.9 µM (inactive)

**Q:** Quickly give me recorded GI50 for COc1ccc2c3c1OC1C(F)C=CC4(O)C(C2)NCCC314 (configuration not stated)
**A:** 9.18 µM (inactive)

**Q:** Quickly give me recorded GI50 for COc1cc2c(cc1O)[C@H](C)C(c1ccc(Cl)cc1)O2 (some centres not stated)
**A:** 31 µM (inactive)

**Q:** Quickly give me recorded GI50 for COc1ccc(C2C(=O)c3ccc(OC)cc3OC2c2cccnc2)cc1 (configuration not stated)
**A:** 46.6 µM (inactive)

**Q:** Quickly give me recorded GI50 for CCOC(=O)c1ccc(C(=O)/C(C(C)=O)=C2\CCCN2C)n1C
**A:** 56.9 µM (inactive)

**Q:** Quickly give me recorded GI50 for CCOC(OCC)N1C(=O)C2(C(OCC)OCC)CC3C(OC(=O)N3N)c3cccc1c32 (configuration not stated)
**A:** > 100 µM (inactive)

**Q:** Quickly give me recorded GI50 for N#CCCN(CCCN(CCCN(C(=O)Nc1ccccc1)c1ccccc1)C(=O)Nc1ccccc1)C(=O)Nc1ccccc1
**A:** > 8.75 µM (inactive)

Reference source: ChEMBL document CHEMBL1201862
